# METHOD_SUMMARY: Effect on Wnt signaling pathway in human SW480 cells harbouring TCF/LEF luciferase reporter gene and SP5-Luc reporter gene incubated for 36 to 48 hrs by luminescence assay
# Assay type: cell-based
Give measured log10 EC50 for each item. Keep answers brief.
Scale type: logarithmic (base 10). Underlying EC50 unit: nM.

For orientation, consider the following solved cases.
O=C(Nc1cccnc1)c1n[nH]c2ccc(-c3cncc(CN4CCS(=O)(=O)CC4)c3)cc12 :: 2.32
CC(C)Oc1cncc(C(=O)Nc2c[nH]nc2C(=O)Nc2ccc(OC3CCN(C)CC3)nc2)c1 :: 1.96
CCC(=O)Nc1cncc(-c2ccc3[nH]nc(-c4cc5c(-c6cccc(F)c6)ccnc5[nH]4)c3c2)c1 :: 1.12

I would be grateful if you could provide log10 EC50 for each of the following entries.
1. CC(C)(C)CC(=O)Nc1cncc(-c2cnc3[nH]nc(-c4cc5cnccc5[nH]4)c3c2)c1
2. CCCCC(=O)Nc1cncc(-c2cc3c(-c4cc5cnccc5[nH]4)n[nH]c3cn2)c1
3. O=C(Nc1cncc(-c2cnc3[nH]nc(-c4nc5c(-c6ccoc6)cncc5[nH]4)c3c2)c1)c1ccccc1
4. O=C(Nc1cncc(-c2cc3c(-c4cc5cnccc5[nH]4)n[nH]c3cn2)c1)C1CC1

1. 2.78
2. 3.55
3. 1.71
4. 3.19

Each compound below has a recorded value; state its log10 EC50.
1. O=C(Nc1cncc(-c2cnc3[nH]nc(-c4nc5c(-c6cccc(F)c6)cncc5[nH]4)c3c2)c1)C1CC1
2. CC(C)Nc1cncc(-c2ccc3[nH]nc(-c4nc5c(-c6cc(F)cc(NCCN(C)C)c6)nccc5[nH]4)c3c2)c1
3. c1cncc(-c2cc3c(-c4nc5c(-c6cccnc6)nccc5[nH]4)n[nH]c3cn2)c1
4. O=C(Nc1cncc(-c2ccc3[nH]nc(-c4nc5c(N6CCCCC6)cncc5[nH]4)c3c2)c1)C1CCC1
5. O=C(NCc1cc(F)cc(F)c1)c1n[nH]c2ccc(-c3cncc(CN4CCCCC4)c3)cc12
6. O=C(Nc1cncc(-c2cnc3[nH]nc(-c4nc5c(-c6cccc(F)c6)cncc5[nH]4)c3c2)c1)N1CCOCC1

1: 1.04; 2: 2.31; 3: 1.45; 4: 1.59; 5: 3.26; 6: 0.95

Each compound below has a reported value. Please supply its log10 EC50.
1. CN1CCC2(CC1)CN(c1cc(C(=O)Nc3cc4cc(-c5cnn(C)c5CN5CCCCC5)cnc4cn3)ccn1)C2
2. CC(C)OC(=O)N1CCC(n2cc(C(=O)Nc3cc4cc(-c5cnn(C)c5)ncc4cn3)cn2)CC1
3. CC(C)CC(=O)Nc1cncc(-c2cnc3[nH]nc(-c4cc5c(-c6cc(F)cc(CNS(C)(=O)=O)c6)cncc5[nH]4)c3c2)c1
4. CC(C)(C)C(=O)Nc1cncc(-c2ccc3[nH]nc(-c4nc5c(-c6ccc(Cl)s6)cncc5[nH]4)c3n2)c1
5. CCNCc1cncc(-c2ccc3[nH]nc(-c4cc5cccnc5[nH]4)c3n2)c1

1: 2.78; 2: 2.92; 3: 3.40; 4: 2.74; 5: 3.58

# batch: return log10 EC50 for each of the 8 compounds below
1. CC(C)CC(=O)Nc1cncc(-c2ccc3[nH]nc(-c4cc5c(-c6ccncc6)cncc5[nH]4)c3c2)c1
2. CC(C)n1cc(C(=O)Nc2cc3cc(-c4cncc(NC5CCN(C)CC5)n4)ncc3cn2)cn1
3. Cn1cc(-c2ccc3cnc(NC(=O)c4ccc5nccnc5c4)cc3n2)cn1
4. CCCC(=O)Nc1cncc(-c2cc3c(-c4nc5c(-c6cccc(F)c6)nccc5[nH]4)n[nH]c3cn2)c1
5. Cc1ncc(-c2cnc3[nH]nc(-c4nc5c(-c6cccc(F)c6)nccc5[nH]4)c3c2)n1C
6. O=C(Nc1c[nH]nc1C(=O)Nc1cncc(-c2cccc(F)c2)c1)c1cncc(OC2CCNCC2)c1
7. Cc1ccc(NC(=O)c2n[nH]c3ccc(-c4cncc(CN5CCCCC5)c4)cc23)cn1
8. Clc1ccc(-c2cncc3[nH]c(-c4n[nH]c5ccc(-c6cncc(CN7CCCC7)c6)nc45)nc23)s1

1: 2.94; 2: 2.21; 3: 2.65; 4: 1.27; 5: 1.10; 6: 3.20; 7: 1.76; 8: 3.52

# return log10 EC50 for each item in the list
1. Cc1n[nH]c2ccc(-c3cncc(O[C@H]4CCNCC4(F)F)n3)cc12
2. Nc1cncc(-c2cc3c(-c4cc5c(-c6ccccc6F)cncc5[nH]4)n[nH]c3cn2)c1

1. 2.36
2. 3.21

Can you give me log10 EC50 for all of these, one by one?
1. COc1cncc(C(=O)Nc2c[nH]nc2C(=O)Nc2ccc3c(c2)CCN(C)C3)c1
2. CC(C)Nc1cncc(-c2ccc3cnc(NC(=O)c4cccc(C5CCN(C)CC5)c4)cc3c2)n1
3. CC(C)C(=O)Nc1cncc(-c2ccc3[nH]nc(-c4cc5c(N6CCN(C)CC6)nccc5[nH]4)c3c2)c1
4. COc1ccc(NC(=O)c2n[nH]c3ccc(-c4cncc(CN5CCC(F)(F)C5)c4)cc23)cn1
5. Cc1ccncc1-c1ccc2[nH]nc(-c3nc4c(-c5ccsc5)nccc4[nH]3)c2c1

1: 2.75; 2: 2.12; 3: 3.89; 4: 0.70; 5: 1.28
